FYI, the data here is from the nanobody polyreactivity screen of Harvey et al. (2022).

assay: yeast display, Sf9 membrane polyspecificity reagent, FACS + sequencing; frameworks hold sequencing errors
property: polyreactivity (PSR sort gate)

{"sequence.chain": "QVQLVESGGGLVQAGGSLRLSCAASGRTFVYNAMGWYRQAPGKERELVAAISFGGGNTYYADSVKGRFTISRDNAKNTVYLQMNSLKPEYTAVYYCAARAGAGPLDYDYWGQGTQVTVSS", "property": "polyreactivity (PSR sort gate)", "recorded.result": "low polyreactivity"}
{"sequence.chain": "QVQLVESGGGLVQAGGSLRLSCAASGRIFRDYVMGWYRQAPGKERELVAGITGSVDSTNYADSVKGRFTISRDNAKNTVYLQMNSLKPEDTAVYYCNAEFWRGTYRFGYWGQGTQVTVSS", "property": "polyreactivity (PSR sort gate)", "recorded.result": "low polyreactivity"}

---

experiment: yeast display, Sf9 membrane polyspecificity reagent, FACS + sequencing; frameworks hold sequencing errors

{"sequence.chain": "QVQLVESGGGLVQAGGSLRLSCAPSGSTFYIYAMGWYRQAPGKERELVAAISTTDGTTYYADSVKGRFTISRDNAKNTVYLQMNSLKPEDTAVYYCAAEWFGSVQPAYDYWGQGTQVTVSS", "polyreactivity (PSR sort gate)": "high polyreactivity"}
{"sequence.chain": "QVQLVESGGGLVQAGGSLRLSCAASGSIFSGNTMGWYRQAPGKERELVAAISGRGSNTYYADSVKGRFTISRDNAKNTVYLQMNSLKPEDTAVYYCAAPWVVRRTAYDYWGQGTQVTVSS", "polyreactivity (PSR sort gate)": "high polyreactivity"}
{"sequence.chain": "QVQLVESGGGLVQAGGSLRLSCAASGSTFVVYAMGWSRQAPGKERELVAAISTSDTSTYYADSVKGRFTISRDNAKNTVYLQMNSLKPEDTAVYDCAADGTYVYINEYEYWGQGTQVTVSS", "polyreactivity (PSR sort gate)": "low polyreactivity"}
{"sequence.chain": "QVQLVESGRGLVQAGGSLRLSCAASGFIFRTYVMGWSRQATGKERELVAAITSSGGSTYYADSVKGRFTISRDTAKNTVYLQMNSLIPEDTAVYYCNAYPVYGRYTHYGYGHWGQGTQVTVSS", "polyreactivity (PSR sort gate)": "high polyreactivity"}
{"sequence.chain": "QVHLVESGGGLVQAGGSLRLSCAASGFTFYSYAMGWYRQAPGKERELVANITIGGSTYADSVKGRFTISRDNAKNTVYLQMNSLKPEDTAVYYCARGYRVVGDPLYGDYDYWGQGTQVTVSS", "polyreactivity (PSR sort gate)": "low polyreactivity"}
{"sequence.chain": "QVQLVESGGGLVQAGGSLRLSCAASGSTFSRYAMGWYRQAPGKERELVAAITASGGSTYYADSVKGRFTISRDNAKNTVYLQMNRLKPEDTAVYYCAASYQVRYDYWGQGTQVTVSS", "polyreactivity (PSR sort gate)": "high polyreactivity"}

---

assay: yeast display, Sf9 membrane polyspecificity reagent, FACS + sequencing; frameworks hold sequencing errors

{"sequence.chain": "QVQLVESGGGLVQAGGSLRLSCAASGLTFYYYAMGWYRQAPGKERELVASITKRGGSTYYADSVKGRFTISRDNAKNTVYLQMNSLKPEDTAVYYCAAQYRSQGQPKGGVLYYYWGQGTQVTVSS", "polyreactivity (PSR sort gate)": "high polyreactivity"}
{"sequence.chain": "QVQLVESGGGLVQAGGSHRLSCSASGITFYYYAMGWYRQAPGKERELVAAISRSGGRTYYADSVKGRFTISRDNAKNTVYLQMNSLKPEDTAVYYCAAVRYQGGDSSIEYDYWGQGTQVTVSW", "polyreactivity (PSR sort gate)": "high polyreactivity"}
